Test system: Wolbachia pipientis
experimental-details: Anti-Wolbachia Cell-Based Screen
Assay type: functional
Parameters: scale not given: in the data most compounds retested in dose-response had high values
measurement-context: 5 µM
Out of some 48,000 compounds screened, about 13,000 (27%) showed an effect of 50% or more. The list shows a part of the results.
The following molecules are shown together with reported Percent Effect values.
Provide the reading as a plain figure in %.

Noted for Cc1ccc(C2CN(C(=O)NCc3nnc4ccccn34)CCO2)o1 (configuration not stated) : its Percent Effect reads -6.842

Value of Percent Effect reported for the molecule Cc1ccccc1CNC(=O)CN1CCCC(Cc2nccn2C)C1 (configuration not stated) is 107

Record summary for CNC(=O)NC(=O)CN1CCCC(Cc2ccccc2OC)C1 (configuration not stated) : reported Percent Effect = -10.54

Percent Effect measured on CC1(C)CCN(Cc2ccccc2-c2nc(C(C)(C)C)cc(=O)[nH]2)C1 = -0.3128

Entry under test: CC(NC(=O)NCC(C)(C)O)c1ccc(-c2ccncc2)cc1 (configuration not stated) . Its Percent Effect was -1.867

// field: Percent Effect; key: CC(=O)N[C@@H]1CN(CC(=O)NCc2ccccc2C)C[C@H]1C(C)C ; value = -3.086

Notebook: Cc1ccccc1CNC(=O)C1CCN(Cc2nccn2C)CC1 , Percent Effect read as 101.3

###

Tested on: Wolbachia pipientis
experimental-details: Anti-Wolbachia Cell-Based Screen
Type: functional
Parameters: scale not given: in the data most compounds retested in dose-response had high values
measurement-context: 5 µM
Hit rate of the full screen: of about 48,000 compounds, about 13,000 (27%) showed an effect of 50% or more. The list shows a part of the results.
Entries annotated with measured Percent Effect
Dear colleague, please return just the value in %, with no unit written.

c1cc(CN2CCCN(c3ccc4cc[nH]c4n3)CC2)ccn1
-27.97
CNC(=O)c1cccc(CCNc2ncc(Br)cn2)c1
-10.19
CCn1nc(C)c(CNC(=O)NCC(C)(O)c2ccccc2)c1C (stereo not drawn)
3.084
CCOCCOC(C)C(=O)NCc1ccc(N2CCCCC2)cc1 (stereo not drawn)
-8.198
O=C(NCCn1ccnc1)NCc1ccc(N2CCCCCC2)nc1
15.34
Cc1nnc([C@@H]2CC[C@@H]3[C@@H](CCN3C3CCOCC3)O2)o1
-2.772

Measured Percent Effect (Wolbachia pipientis), entry CNCC(=O)Nc1ccc(-c2cnc(NCCS(C)(=O)=O)nc2)cc1 : 99.21

For the compound c1cn(Cc2nnc(C3CCN(C4CCCCC4)CC3)n2C2CC2)cn1 , the measured Percent Effect on Wolbachia pipientis was 13.15

# CNCC(=O)Nc1cccc(-c2cnc(NCCS(C)(=O)=O)nc2)c1 with Wolbachia pipientis: Percent Effect is 116.8

###

Tested on: Wolbachia pipientis
experimental-details: Anti-Wolbachia Cell-Based Screen
Format: functional
Set-up: scale not given: in the data most compounds retested in dose-response had high values
measurement-context: 5 µM
Out of some 48,000 compounds screened, about 13,000 (27%) showed an effect of 50% or more. Some of the results follow.
Collected Percent Effect values appear next to each entry.
Give just the numeric value; % need not be written.

The recorded Percent Effect for CN1CCOC(C(=O)N2CCC3(CCCC3)CC2)C1 (centres undefined) is -33.61

###

Each entry below carries its reported Percent Effect.
System: Wolbachia pipientis
experimental-details: Anti-Wolbachia Cell-Based Screen
Format: functional
Set-up: scale not given: in the data most compounds retested in dose-response had high values
measurement-context: 5 µM
The whole screen tested about 48,000 compounds, of which about 13,000 (27%) showed an effect of 50% or more. The list shows a part of the results.
Express the result in % but write the number alone.

Some solved cases for reference:
CC(=O)NCC(=O)N1Cc2nccn2CC(CN2CCCC2=O)C1 (stereo unspecified)
14.08
COc1ccc(CNC(=O)NCCc2nc(C)c(C)s2)cn1
-8.722
CCOc1ccccc1N1CCN(CC2(O)CCCNC2)CC1 (stereo unspecified)
-13.46
CC(C)CCN1CC2(CCN(C3CCCOC3)CC2)OC1=O (stereo unspecified)
10.38

// Percent Effect value for CC(C)CCN1CCc2[nH]nc(C(=O)N3CC=CC3)c2C1.O=C(O)C(F)(F)F.O=C(O)C(F)(F)F : -3.7

Record COC(=O)C1CN(Cc2ccccc2C(C)(C)C#N)CCO1 (stereo unspecified) , field Percent Effect: 1.007

Briefly, Percent Effect measured for CCOc1ccccc1N1CCN(c2nnc(C)o2)CC1 : 100.3
